Target Entity: Ras farnesyl transferase (Homo sapiens, UniProt P49354+P49356)
Assay Comment: Ras farnesyl transferase inhibiting activity (filter-binding, tritium-farnesylpyrophosphate, Ras-CVLS substrate)
Assay Setup: recombinant Ras farnesyl transferase, 30 minutes at 37° C., read-out: Ftase IC50
pIC50: −log10 of the molar value.
Hi, to clarify the labels: y covers pIC50 from 7 upward, n covers anything below 7.

In: Reported pIC50 at or above 7? CSCCC(NC(=O)CN1C(=O)N(CCc2c[nH]cn2)C(=O)C1(C)c1cccc2ccccc12)C(=O)O (stereo not shown) [Compound 4]
Out: y

In: Reported pIC50 at or above 7? COC(=O)C(CCSC)NC(=O)CN1C(=O)N(CCCc2cncn2Cc2ccc(C#N)cc2)C(=O)C1(C)c1cccc2ccccc12 (stereo not shown) [Compound 57]
Out: y

In: Reported pIC50 at or above 7? CC1(c2cccc3ccccc23)C(=O)N(CCCn2ccnc2)C(=O)N1Cc1cccc(C(=O)N2CCSCC2)c1 (stereo not shown) [Compound 44]
Out: n

In: Reported pIC50 at or above 7? CC1(c2cccc3ccccc23)C(=O)N(CCCn2ccnc2)C(=O)N1Cc1ccc(C#N)cc1 (stereo not shown) [Compound 33]
Out: n

In: Reported pIC50 at or above 7? CC1(c2cccc3ccccc23)C(=O)N(CCCn2ccnc2)C(=O)N1Cc1cccc(C(F)(F)F)c1 (stereo not shown) [Compound 22]
Out: n

In: Reported pIC50 at or above 7? COCCN(C)C(=O)c1ccc(CN2C(=O)N(CCCn3ccnc3)C(=O)C2(C)c2cccc3ccccc23)cc1 (stereo not shown) [Compound 42]
Out: n

In: Reported pIC50 at or above 7? COC(=O)c1ccc(CN2C(=O)N(CCCn3ccnc3)C(=O)C2(C)c2cccc3ccccc23)cc1 (stereo not shown) [Compound 38]
Out: n

In: Reported pIC50 at or above 7? CCOC(=O)CC1C(=O)N(Cc2cncn2Cc2ccc(C#N)cc2)C(=O)N1Cc1cccc2ccccc12 (stereo not shown) [Compound 77]
Out: y

In: Reported pIC50 at or above 7? CSCC[C@H](NC(=O)CC1C(=O)N(Cc2cncn2Cc2ccc(C#N)cc2)C(=O)N1Cc1cccc2ccccc12)C(=O)O (stereo partly shown) [Compound 86]
Out: y

In: Reported pIC50 at or above 7? CC1(c2cccc3ccccc23)NC(=O)N(CCCc2cncn2Cc2ccc(Br)cc2)C1=O (stereo not shown) [Compound 68]
Out: n

In: Reported pIC50 at or above 7? O=C1CN(c2cccc3ccccc23)C(=O)N1CCCn1ccnc1 [Compound 87]
Out: n
